subject_of_test: T1, cyno FcRn/b2M (cyno, UniProt Q8SPV9 24-297; Q8SPW0 21-119, biotinylated)
T1 construct: bought recombinant biotinylated protein (Immunitrack ITF05 or ACRO FCM-C82W5); also called cFcRn; cFcRn/cb2M
test_details: SPR pH 6.0;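 note: surface plasmon resonance kinetics at 25 °C, diluted periplasmic extracts injected over immobilized ligand surfaces, 120 s association then 600–3600 s dissociation, running buffer containing 150 mM NaCl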

binder: T0263018B11 T57D (VHH, name in Kabat numbering, FLAG3-His6 tagged) VHH: EVQLVESGGGVVQPGGSLRLSCAASGFTFSSYAMYWVRQAPGKGLEWVSAISSGGGSDDYADSVKGRFTISRDNSKNTLYLQMNSLRPEDTALYYCAADTLYTSLTWYSYWGQGTLVTVSS
koff / s⁻¹: 0.00063

binder: T0263018B11 T57S (VHH, name in Kabat numbering, FLAG3-His6 tagged) VHH: EVQLVESGGGVVQPGGSLRLSCAASGFTFSSYAMYWVRQAPGKGLEWVSAISSGGGSSDYADSVKGRFTISRDNSKNTLYLQMNSLRPEDTALYYCAADTLYTSLTWYSYWGQGTLVTVSS
koff / s⁻¹: 0.00071

binder: T0263018B11 S52aW (VHH, name in Kabat numbering, FLAG3-His6 tagged) VHH: EVQLVESGGGVVQPGGSLRLSCAASGFTFSSYAMYWVRQAPGKGLEWVSAISWGGGSTDYADSVKGRFTISRDNSKNTLYLQMNSLRPEDTALYYCAADTLYTSLTWYSYWGQGTLVTVSS
koff / s⁻¹: 0.0008

binder: T0263018B11 S30D (VHH, name in Kabat numbering, FLAG3-His6 tagged) VHH: EVQLVESGGGVVQPGGSLRLSCAASGFTFDSYAMYWVRQAPGKGLEWVSAISSGGGSTDYADSVKGRFTISRDNSKNTLYLQMNSLRPEDTALYYCAADTLYTSLTWYSYWGQGTLVTVSS
koff / s⁻¹: 0.0026

binder: T0263018B11 S100M (VHH, name in Kabat numbering, FLAG3-His6 tagged) VHH: EVQLVESGGGVVQPGGSLRLSCAASGFTFSSYAMYWVRQAPGKGLEWVSAISSGGGSTDYADSVKGRFTISRDNSKNTLYLQMNSLRPEDTALYYCAADTLYTMLTWYSYWGQGTLVTVSS
koff / s⁻¹: 0.00024

binder: T0263018B11 S52P (VHH, name in Kabat numbering, FLAG3-His6 tagged) VHH: EVQLVESGGGVVQPGGSLRLSCAASGFTFSSYAMYWVRQAPGKGLEWVSAIPSGGGSTDYADSVKGRFTISRDNSKNTLYLQMNSLRPEDTALYYCAADTLYTSLTWYSYWGQGTLVTVSS
koff / s⁻¹: 0.0013

binder: T0263018B11 D58Y (VHH, name in Kabat numbering, FLAG3-His6 tagged) VHH: EVQLVESGGGVVQPGGSLRLSCAASGFTFSSYAMYWVRQAPGKGLEWVSAISSGGGSTYYADSVKGRFTISRDNSKNTLYLQMNSLRPEDTALYYCAADTLYTSLTWYSYWGQGTLVTVSS
koff / s⁻¹: 0.002

binder: T0263018B11 D58H (VHH, name in Kabat numbering, FLAG3-His6 tagged) VHH: EVQLVESGGGVVQPGGSLRLSCAASGFTFSSYAMYWVRQAPGKGLEWVSAISSGGGSTHYADSVKGRFTISRDNSKNTLYLQMNSLRPEDTALYYCAADTLYTSLTWYSYWGQGTLVTVSS
koff / s⁻¹: 0.002
